test system: K-562 leukemia; test: NCI tumour cell line growth inhibition, 48 h
metric: TGI (µM)

INSERT INTO measurements (compound, assaytarget, displayunit, comparativesign, recordedvalue) VALUES
  ('Clc1ccc(Cl)c(N=Nc2cc3c4c(c2)CCCN4CCC3)c1', 'K-562 leukemia', 'µM', '>', 10),
  ('CC(C)(C)c1ccc(-n2c3nc(=O)n(-c4ccccc4C(F)(F)F)c(=O)c-3cc3ccccc32)cc1', 'K-562 leukemia', 'µM', '=', 61.7),
  ('CO/N=C/C=C\C(=O)N/C=C/C[C@H]1/C=C/[C@H](O)/C=C\C=C\c2cccc(O)c2C(=O)O1', 'K-562 leukemia', 'µM', '>', 100),
  ('CC(O)C1(CNc2cc(Cl)nc(N)n2)CCCC1 (stereo not given)', 'K-562 leukemia', 'µM', '>', 100),
  ('CCOC(=O)C(NC(=O)CC)(C(F)(F)F)P(=O)(OCC)OCC (stereo not given)', 'K-562 leukemia', 'µM', '>', 100),
  ('CN(C)c1ccc(/C=C(/C(=O)O)c2csc(-c3nc(/C(=C\c4ccc(N(C)C)cc4)C(=O)O)cs3)n2)cc1', 'K-562 leukemia', 'µM', '>', 100),
  ('COc1cc2c3c(n(CCCNCCCNCCCn4c5c(c6cc(OC)c(OC)cc6c4=O)C(=O)c4ccccc4-5)c(=O)c2cc1OC)-c1ccccc1C3=O', 'K-562 leukemia', 'µM', '=', 45.4),
  ('COc1nc(NC2OCC(O)C(O)C2O)c(NC2OCC(O)C(O)C2O)c(=O)n1C (stereo not given)', 'K-562 leukemia', 'µM', '>', 100),
  ('NCCOc1ncccc1/C=C1\C2C=CC=CC2C2C=CC(F)=CC12 (stereo not given)', 'K-562 leukemia', 'µM', '=', 3.13),
  ('O=c1[nH]c2ccccc2nc1CBr', 'K-562 leukemia', 'µM', '=', 9.5);
